Entry source: PubChem BioAssay (NCI)

system: T-47D breast; experiment: NCI tumour cell line growth inhibition, 48 h; in the data active means GI50 below about 0.43 µM; inactive means the rest
Outcomes: y (active), n (inactive)

compound=S=C1NCCN1C1=Nc2ccccc2CO1 discrete_label=n
compound=Cc1c(Cl)cccc1Nc1ncccc1C(=O)O discrete_label=n
compound=CN1CCN(Cc2ccc(NC(=O)c3cncc(C#Cc4cnc(N)c5ccccc45)c3)cc2C(F)(F)F)CC1 discrete_label=n
compound="OC(c1cccc(C(F)(F)F)c1)c1cnccc1NC1CCCCCC1 (stereo not drawn)" discrete_label=n
compound=Cn1cc(C2=C(c3ccc(OC[C@@H](O)CO)cc3)C(=O)NC2=O)c2ccccc21 discrete_label=n
compound=CCN1CCN(c2nc(NCCNc3ccnc4cc(Cl)ccc34)c3ccccc3n2)CC1 discrete_label=n
compound=Fc1ccc(-c2nn(-c3ccccc3)cc2-c2nc3ccccc3o2)cc1 discrete_label=n
compound=CNC(=O)c1cc(Oc2ccc3c(c2)sc2nc(-c4ccc(N)cc4)cn23)ccn1 discrete_label=y

###

tested on: MDA-MB-231 breast; experiment: NCI tumour cell line growth inhibition, 48 h
Readings of TGI for the listed molecules
READOUT KIND: TGI (µM)

molecule=Cc1c(Cl)cccc1Nc1ncccc1C(=O)O readout_kind=TGI censoring_sign=> measurement=100
molecule=Cc1nc2ccc([N+](=O)[O-])cc2c(=O)n1C(=S)Nc1cccc(Cl)c1 readout_kind=TGI censoring_sign== measurement=37.1
molecule="O=C1CC(c2ccc([N+](=O)[O-])cc2)C2(C(=O)NC(=S)NC2=O)C(c2ccc([N+](=O)[O-])cc2)C1 (stereo not given)" readout_kind=TGI censoring_sign== measurement=37.3
molecule=CN(C)c1ccc(/C(Br)=C2\OC(=O)c3ccccc32)cc1 readout_kind=TGI censoring_sign=> measurement=100
molecule=O=C(O)CNC(=O)c1ccc([As](=O)(O)O)cc1 readout_kind=TGI censoring_sign=> measurement=100

###

system: UO-31 renal; assay: NCI tumour cell line growth inhibition, 48 h
Where a SMILES comes first, the peptide text is derived from it. [ ]: non-standard residue; d: D form. The star is where a group is joined. Bn2Val = CC(C)[C@@H](C(=O)*)N(Cc1ccccc1)Cc1ccccc1; NH(3,4-diMeO-benzyl) = COc1ccc(CN*)cc1OC; NMeV = CN[C@H](C(=O)O)C(C)C; dNMeA = CN[C@H](C)C(=O)O
Short version: TGI at least 30 µM is condition met, less is condition not met.

compound=O=[N+]([O-])c1ccc(NSc2ccccc2)cc1 discrete_label="condition met"
compound=Nc1ncnc2c1ncn2C(=O)NC12CC3CC(CC(C3)C1)C2 discrete_label="condition met"
compound=Clc1cccc(NC=Nc2ccc(-c3nc4ccccc4s3)cc2)c1 discrete_label="condition met"
compound="COc1ccc(CNC(=O)[C@@H](C)N(C)C(=O)[C@@H]2CCCN2C(=O)[C@H](C(C)C)N(C)C(=O)[C@@H](NC(=O)[C@H](C(C)C)N(Cc2ccccc2)Cc2ccccc2)C(C)C)cc1OC (Bn2Val-V[NMeV]P[dNMeA]-{NH(3,4-diMeO-benzyl)})" discrete_label="condition met"
compound=Cc1c(C(=O)/C=C/c2cccc3ccccc23)[n+](=O)c2ccccc2n1[O-] discrete_label="condition met"
compound=N#Cc1c2c(c(Nc3ccc(F)cc3)n3c1nc1ccccc13)CCC2 discrete_label="condition not met"
compound=O=C1c2ccccc2C(=O)c2c1ccc1[nH]c(CCl)nc21 discrete_label="condition not met"
compound=O=[n+]1c(CBr)c(CBr)n([O-])c2ccccc21 discrete_label="condition not met"
compound="CC1=CCCC(OC(N)=O)C1 (centres undefined)" discrete_label="condition met"
